Test system: BR5-Luc
reportedProperty: IC50 (nM)

- C=CC(=O)N1CC/C(=C\c2ccc(F)c([N+](=O)[O-])c2)C(=O)/C(=C/c2ccc(F)c([N+](=O)[O-])c2)C1 [VLX1570]: 4.8

====

Tested on: HCC1806
assayProcedure: MTT cytotoxicity assay, HCC1806
Format: cell-based
conditionNotes: Homo sapiens, HCC1806, 48 h, read-out: IC50 HCC1806
Attribute: IC50
reportedProperty: IC50

- N[C@@H](Cc1ccccc1)C(=O)N1C/C(=C\c2ccc([N+](=O)[O-])cc2)C(=O)/C(=C/c2ccc([N+](=O)[O-])cc2)C1 [RA183, reference compound]: 0.044 µM
- O=C(CCl)N[C@@H](Cc1ccccc1)C(=O)N1C/C(=C\c2ccc([N+](=O)[O-])cc2)C(=O)/C(=C/c2ccc([N+](=O)[O-])cc2)C1: 0.017 µM
